Below, each entry is listed alongside its reported seed-corrected z-score.
- Assay Overview: Identification of proteins required for the processing of the EWS-FLI1 nascent transcript;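 further: robust z of luciferase light less the median z of siRNAs with the same seed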
- Assay Conditions: TC32 Ewing sarcoma NR0B1-luc vs CMV-luc (EWS-FLI1 target promoter against control promoter), 48 h; screened at 20 nM (by protocol)
Whole data set: some 59,000 sequences, median the read-out near -0.00055, cut for the lowest 2% near -2. The sample as a whole holds a higher share of the lowest values than the screen did.
Lab note: record just the number, no unit beside it.

Look over these answered cases.
- UUCGUUAGUUGUUCUAGGC against RB1CC1: -2.96
- UACAUGUCAAAUGAGCUCC against KIR2DL5B: -2.25
- UAUAUGAUUAACAAAACGG against XKR3: 0.439

Which measured seed-corrected z-score value corresponds to UGAGGUCCACGAUAUCUAG against PYDC1 ?
0.555

What seed-corrected z-score value was documented for this sequence, UAGGUUGGAGAAUUGUUCC against T ?
-0.372

I am curious: what seed-corrected z-score value has been reported for AUUCGUAUGGUUCAUGUCC against PRPF8 ?
-2.88

Please look up its seed-corrected z-score: UACGAGUCACGGGAAAUAC against TAF5
0.238
